# experimentalTarget: mGluR5 receptor (Sus scrofa)
# Construct: from tissue; host or cells: pig brain halves without medulla, cerebellum and pons
# Sequence (I3LUI7 19-1212): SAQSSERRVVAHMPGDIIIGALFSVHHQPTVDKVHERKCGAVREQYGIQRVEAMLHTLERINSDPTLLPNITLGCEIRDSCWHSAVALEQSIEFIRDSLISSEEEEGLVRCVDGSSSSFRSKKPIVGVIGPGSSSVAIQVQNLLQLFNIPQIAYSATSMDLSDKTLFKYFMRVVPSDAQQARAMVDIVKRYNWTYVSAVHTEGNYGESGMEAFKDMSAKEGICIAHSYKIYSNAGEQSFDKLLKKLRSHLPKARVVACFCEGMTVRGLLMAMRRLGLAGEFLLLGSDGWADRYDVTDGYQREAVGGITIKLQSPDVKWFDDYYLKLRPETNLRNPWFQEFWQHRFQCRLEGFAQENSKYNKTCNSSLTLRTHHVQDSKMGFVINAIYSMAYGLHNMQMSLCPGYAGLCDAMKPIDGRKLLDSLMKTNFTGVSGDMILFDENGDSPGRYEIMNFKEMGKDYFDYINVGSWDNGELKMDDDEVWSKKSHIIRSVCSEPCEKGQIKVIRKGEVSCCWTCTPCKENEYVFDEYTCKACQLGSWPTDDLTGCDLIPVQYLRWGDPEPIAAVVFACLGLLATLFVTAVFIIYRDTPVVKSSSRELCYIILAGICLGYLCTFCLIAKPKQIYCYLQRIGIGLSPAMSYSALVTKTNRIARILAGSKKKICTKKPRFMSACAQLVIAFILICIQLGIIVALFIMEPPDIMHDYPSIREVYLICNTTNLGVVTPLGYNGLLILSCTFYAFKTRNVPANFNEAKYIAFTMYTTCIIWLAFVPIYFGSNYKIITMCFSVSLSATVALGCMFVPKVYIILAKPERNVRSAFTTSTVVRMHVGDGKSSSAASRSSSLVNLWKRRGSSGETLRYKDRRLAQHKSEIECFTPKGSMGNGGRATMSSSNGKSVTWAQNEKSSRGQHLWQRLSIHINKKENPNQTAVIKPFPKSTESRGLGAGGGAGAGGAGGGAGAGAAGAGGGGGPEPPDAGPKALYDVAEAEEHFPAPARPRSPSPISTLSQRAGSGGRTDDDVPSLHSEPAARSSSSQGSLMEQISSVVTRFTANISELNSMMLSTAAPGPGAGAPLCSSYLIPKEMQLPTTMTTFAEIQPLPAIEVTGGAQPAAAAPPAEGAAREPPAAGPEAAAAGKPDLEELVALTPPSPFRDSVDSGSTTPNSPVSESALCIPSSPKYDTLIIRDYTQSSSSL
# assaySummary: [3H]-MPEP binding in the mGluR5 receptor binding assay (pig brain homogenate)
# measurementSetup: 10 μM; pig brain homogenate; 5 nM [3H]-MPEP
parameterMeasured: mGluR5-receptor (% inhibition 10 μM) in pigs (%)

mol: Cc1nsc(N2CCN(C(=O)C#Cc3ccccc3)CC2)n1
measuredValue: 91
--
mol: O=Cc1cccc(C#CC(=O)N2CCN(c3nccs3)CC2)c1
measuredValue: 91
--
mol: CCOC(=O)c1csc(N2CCN(C(=O)C#Cc3ccccc3)CC2)n1
measuredValue: 89

* * *

# experimentalTarget: mGluR5 receptor (Sus scrofa)
# Construct: from tissue; host or cells: pig brain halves without medulla, cerebellum and pons
# assaySummary: [3H]-MPEP binding in the mGluR5 receptor binding assay (pig brain homogenate)
# measurementSetup: Table II; unit inferred
pIC50: −log10 of the molar value.
parameterMeasured: pIC50

mol: O=C(C#Cc1ccccc1F)N1CCN(c2nccs2)CC1
parameterMeasured: pIC50
measuredValue: 6.08

A = O=C(C#Cc1ccc2[nH]ccc2c1)N1CCN(c2nccs2)CC1
B = Cc1cc(F)cc(C#CC(=O)N2CCN(c3nccs3)CC2)c1
Prompt line: Given the listed records, identify the one among A and B with higher pIC50. Please identify the chosen entry by its label.
Response line: A
(A: 6.15, B: 5.86)
